The reader will find reported normalized growth values listed item by item below.
Experiment: chemical genetic growth profiling, strain panel (AID 1159580);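 further: tested at 20 µM; growth read once vehicle control cultures reached saturation at 30 °C; 1 = growth at the plate median or of vehicle wells; lower values mean less growth of the strain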
Details: S. cerevisiae deletion strains, growth OD, locus YJL164C, strain tpk1, stronger effect = lower value
Out of some 5,500 compounds screened, about 2,000 (36%) were called active. Roughly 18% stayed inconclusive and do not appear here. Some of the results follow.

compound: C[C@]12C=CC(=O)C=C1CCC1C2[C@@H](O)C[C@@]2(C)C1CC[C@]2(O)C(=O)CO (stereo not given in full)
normalized growth: 0.989 (inactive)
--
compound: CCN1C[C@@]2(COC)C3[C@@H](OC)[C@H]4[C@@H]1[C@]3(C(OC)C[C@H]2O)C1C[C@@]2(O)[C@H](OC(=O)c3ccccc3)C1[C@]4(OC(C)=O)[C@@H](O)[C@@H]2OC (stereo not given in full)
normalized growth: 1.02 (inactive)
--
compound: COc1ccc2c(c1)OCC(Cc1ccc(OC)c(OC)c1)C2=O (stereo not given)
normalized growth: 0.96 (inactive)
--
compound: Clc1ccc(C(Cn2ccnc2)OCc2ccsc2Cl)c(Cl)c1 (stereo not given)
normalized growth: 0.0589 (active)
--
compound: COC1C=CC23c4cc5c(cc4CN(CC2O)[C@@H]3C1)OCO5 (stereo not given in full)
normalized growth: 0.973 (inactive)
--
compound: CCCNC(=O)NS(=O)(=O)c1ccc(Cl)cc1
normalized growth: 1.01 (inactive)
--
compound: c1ccc2c(CC3=NCCN3)cccc2c1
normalized growth: 0.978 (inactive)
--
compound: CC1(C)N([O-])[N+](=O)C1(C)Br (stereo not given)
normalized growth: 0.995 (inactive)
--
compound: Cc1nnc(NS(=O)(=O)c2ccc(N)cc2)s1
normalized growth: 1.01 (inactive)
--
compound: CC12CCCCC1(Br)[N+](=O)N2[O-] (stereo not given)
normalized growth: 0.951 (inactive)

---

Test: chemical genetic growth profiling, strain panel (AID 1159580)
Settings: S. cerevisiae deletion strains, growth OD, locus YHR079C, strain IRE1, stronger effect = lower value
In all, about 5,500 compounds went through this assay and about 2,000 (36%) were called active. About 18% were inconclusive and are not listed. This is one part of the list.
The reader will find reported normalized growth values listed item by item below.

molecule: Nc1nc(F)nc2c1ncn2[C@@H]1O[C@H](COP(=O)(O)O)[C@@H](O)[C@@H]1O
normalized growth: 1.04
--
molecule: COP(=S)(OC)Oc1ccc(Sc2ccc(OP(=S)(OC)OC)cc2)cc1
normalized growth: 1.01
--
molecule: Clc1ccc(CSC(Cn2ccnc2)c2ccc(Cl)cc2Cl)cc1 (centres undefined)
normalized growth: 0.104
--
molecule: COC[C@]12CN(C=O)C3[C@@H]4[C@H](OC)C1[C@]3(C1CC3(O)C(OC)C(O)C4(OC(C)=O)C1C3OC(=O)c1ccccc1)[C@@H](OC)C[C@H]2O (some centres undefined)
normalized growth: 1.04
--
molecule: Clc1ccc(COC(Cn2ccnc2)c2ccc(Cl)cc2Cl)c(Cl)c1 (centres undefined)
normalized growth: 0.124
--
molecule: FC(F)(F)c1cc(NC(=S)SCCSC(=S)Nc2cc(C(F)(F)F)cc(C(F)(F)F)c2)cc(C(F)(F)F)c1
normalized growth: 1.04
--
molecule: Clc1ccc(CO/N=C(/Cn2ccnc2)c2ccc(Cl)cc2Cl)c(Cl)c1
normalized growth: 0.138
--
molecule: CCOC(=O)c1sc(S(C)=NC(=O)Nc2ccc(Cl)cc2)c2c1CCC=C2 (centres undefined)
normalized growth: 1.01
--
molecule: COP(=S)(OC)Oc1ccc([N+](=O)[O-])cc1
normalized growth: 0.988

---

Experiment: chemical genetic growth profiling, strain panel (AID 1159580);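 further: tested at 20 µM; growth read once vehicle control cultures reached saturation at 30 °C; 1 = growth at the plate median or of vehicle wells; lower values mean less growth of the strain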
Settings: S. cerevisiae deletion strains, growth OD, locus YBR229C, strain ROT2, stronger effect = lower value
The campaign covered roughly 5,500 compounds. About 2,000 (36%) were called active. Another 18% or so got no clear call; they are omitted. This is one part of the list.
The reader will find reported normalized growth values listed item by item below.
test_readout: normalized growth

compound: COc1cc(OC)c2c(=O)cc(-c3ccccc3)oc2c1
value_measured: 0.949
//
compound: C[C@]12CCC3c4ccc(OC(=O)c5ccccc5)cc4CCC3C1CCC2=O (stereo partly specified)
value_measured: 1
//
compound: CC12CCC3C(=CCc4cc(O)ccc43)C1CCC2=O (stereo unspecified)
value_measured: 0.989
//
compound: CC(=O)Oc1ccc2c(c1)CCC1C2CC[C@]2(C)C(=O)CCC12 (stereo partly specified)
value_measured: 1
//
compound: COc1ccc2c(=O)c(OC)c(-c3ccccc3)oc2c1
value_measured: 0.966
//
compound: C[C@]12CCC3c4ccc(O)cc4CCC3C1CCC2=O (stereo partly specified)
value_measured: 0.96

---

Assay: chemical genetic growth profiling, strain panel (AID 1159580);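 further: tested at 20 µM; growth read once vehicle control cultures reached saturation at 30 °C; 1 = growth at the plate median or of vehicle wells; lower values mean less growth of the strain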
Details: S. cerevisiae deletion strains, growth OD, locus YLR268W, strain sec22, stronger effect = lower value
The campaign covered roughly 5,500 compounds. About 2,000 (36%) were called active. Another 18% or so got no clear call; they are omitted. This is one part of the list.
The reader will find reported normalized growth values listed item by item below.

compound: Oc1c(Cl)cc(Cl)c(Cl)c1Cc1c(O)c(Cl)cc(Cl)c1Cl
normalized growth: 0.0689
//
compound: COC(=O)[C@@H]1OC(=O)C2OC23[C@@]1(C)CCC1[C@@]2(C)CCC(=O)C(C)(C)C2C[C@@H](OC(C)=O)[C@]13C (stereo not given in full)
normalized growth: 1.04
//
compound: CN(C)CCC(c1ccccc1)c1ccccn1 (stereo not given)
normalized growth: 1.04
//
compound: CC(=O)O[C@]1(C)CC[C@@]23CC1C(C)(C)[C@@H]2CC[C@H]3C
normalized growth: 1.03
//
compound: Clc1ccc(CSC(Cn2ccnc2)c2ccc(Cl)cc2Cl)cc1 (stereo not given)
normalized growth: 0.0568
//
compound: Clc1ccc(COC(Cn2ccnc2)c2ccc(Cl)cc2Cl)cc1 (stereo not given)
normalized growth: 0.0635
//
compound: Cc1nnc(NS(=O)(=O)c2ccc(N)cc2)s1
normalized growth: 1.04
//
compound: C[C@@H]1CC[C@H]2C(C)(C)C3CC12CC[C@@]3(C)O (stereo not given in full)
normalized growth: 0.961
//
compound: COc1c(C)c2c(c(O)c1C/C=C(\C)CCC(=O)O)C(=O)OC2
normalized growth: 0.612
//
compound: COC(=O)/C(C)=C\CC12OC(C)(C)C3CC(C=C4C(=O)c5c(OC)c6c(c(CC=C(C)C)c5OC431)OC(C)(CCC=C(C)C)C=C6)C2=O (stereo not given)
normalized growth: 0.961

---

Experiment: chemical genetic growth profiling, strain panel (AID 1159580);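 further: tested at 20 µM; growth read once vehicle control cultures reached saturation at 30 °C; 1 = growth at the plate median or of vehicle wells; lower values mean less growth of the strain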
Conditions: S. cerevisiae deletion strains, growth OD, locus YJR066W, strain TOR1 (second series), stronger effect = lower value
In all, about 5,500 compounds went through this assay and about 2,000 (36%) were called active. Roughly 18% stayed inconclusive and do not appear here. The list shows a part of the results.
Our labelling divides records by normalized growth into ranges: bin A (below 0.8), bin B (0.8 to below 1), bin C (1 or more)

compound: Cc1noc(C)c1S(=O)(=O)Nc1csc(C(F)(F)F)c1-c1ccccc1
label_value: bin C
//
compound: CC1=CC(=O)N(c2ccc(F)c(Cl)c2)C1=O
label_value: bin A
//
compound: N#Cc1cccc(CSc2nc3ccc(C(F)(F)F)cc3[nH]2)c1
label_value: bin B
//
compound: CN(C)c1ccc(/C=C/c2ccc3ccccc3[n+]2C)cc1
label_value: bin B
//
compound: Clc1ccc(-c2cnc(Nc3cc(Cl)cc(Cl)c3)s2)cc1
label_value: bin A
//
compound: O=C(NNc1ccccc1)c1cc(-c2ccc(Cl)cc2)oc1C(F)(F)F
label_value: bin A
//
compound: Cc1ccc(S(=O)(=O)Nc2nc(-c3ccc(C)c(Cl)c3)c(C)s2)cc1
label_value: bin C
//
compound: CC1=CC(=O)N(c2ccc(OC(F)(F)F)cc2)C1=O
label_value: bin A
//
compound: C[C@@H](Nc1ncnc2sc3c(c12)CCCC3)c1ccccc1
label_value: bin B
//
compound: CCOC(=O)c1sc(S(C)=NC(=O)Nc2ccc(Cl)cc2)c2c1CCC=C2 (stereo not drawn)
label_value: bin B
//
compound: CC1CCC(C(C)C)C(N(Cc2ccccc2)C(=O)c2ccccc2)C1 (stereo not drawn)
label_value: bin B
//
compound: O=S(=O)(NCc1ccc(C(F)(F)F)cc1)c1cccc(C(F)(F)F)c1
label_value: bin B
//
compound: Cn1nccc1-c1cc(Cl)cc(Cl)c1O
label_value: bin A
//
compound: O=C(Nc1ccncc1)c1cc(-c2ccccc2)oc1C(F)(F)F
label_value: bin B
//
compound: Cc1ccc(NC(=S)C(C#N)C(=O)N2CCOCC2)c(C)c1 (stereo not drawn)
label_value: bin C
//
compound: O=C(Nc1cc(Cl)ccc1O)c1ccccc1CSc1ccc(Cl)cc1
label_value: bin A
//
compound: O=S(=O)(Nc1cc(Cl)c(Cl)cc1Cl)c1cc(C(F)(F)F)cc(C(F)(F)F)c1
label_value: bin B
//
compound: Clc1cccc(Nc2ncc(-c3ccc4c(c3)OCCCO4)s2)c1
label_value: bin B
